Tested on: Candida albicans
Test: Induction of apoptosis in Candida albicans ATCC SC5314 assessed as necrotic cells incuabted for 24 hrs by V-FITC/PI staining based flow cytometry analysis (reference value: 1.77%)
Assay type: functional
Catalogue of Activity values
Supply the numeric figure in %, leaving out any unit text.

Consider the worked cases shown below.
[[record]]
molecule = "CC(C)NC(=O)[C@@H](Cn1ccnc1)NC(=O)[C@@H](C)c1cccc(C(=O)c2ccccc2)c1"
observable = "Activity"
unitinfo = "%"
measurednumber = 30.96

[[record]]
molecule = "OC(Cn1cncn1)(Cn1cncn1)c1ccc(F)cc1F"
observable = "Activity"
unitinfo = "%"
measurednumber = 29.87

[[record]]
molecule = "COC(=O)[C@@H](Cn1cncn1)NC(=O)[C@@H](C)c1cccc(C(=O)c2ccccc2)c1"
observable = "Activity"
unitinfo = "%"
measurednumber = 34.69


With those in mind, consider the next molecule.
Given the entry COc1ccc2cc([C@H](C)C(=O)NC(Cn3cncn3)C(=O)c3ccccc3)ccc2c1 (some centres undefined) , what Activity was observed with Candida albicans?
11.59

====

System: Cryptococcus neoformans
Test: Antifungal activity against Cryptococcus neoformans ZKCC 2209 assessed as fungal growth inhibition measured after 72 hrs by double dilution method
Type: functional
Catalogue of MIC50 values
Supply the numeric figure in µg/mL, leaving out any unit text.

[[record]]
compound = "OC(Cn1cncn1)(Cn1cncn1)c1ccc(F)cc1F [FLUCONAZOLE]"
assaytarget = "Cryptococcus neoformans"
unitinfo = "µg/mL"
measurednumber = 0.5

[[record]]
compound = "COC(=O)[C@@H](Cn1ccnc1)NC(=O)[C@@H](C)c1ccc2cc(OC)ccc2c1"
assaytarget = "Cryptococcus neoformans"
unitinfo = "µg/mL"
measurednumber = 0.58

[[record]]
compound = "CC(C)NC(=O)[C@@H](Cn1ccnc1)NC(=O)[C@@H](C)c1cccc(C(=O)c2ccccc2)c1"
assaytarget = "Cryptococcus neoformans"
unitinfo = "µg/mL"
measurednumber = 0.5

[[record]]
compound = "CC(C)OC(=O)[C@@H](Cn1cncn1)NC(=O)[C@@H](C)c1cccc(C(=O)c2ccccc2)c1"
assaytarget = "Cryptococcus neoformans"
unitinfo = "µg/mL"
measurednumber = 0.25

[[record]]
compound = "COc1ccc2cc([C@H](C)C(=O)N[C@H](Cn3ccnc3)C(=O)NC3CCCCC3)ccc2c1"
assaytarget = "Cryptococcus neoformans"
unitinfo = "µg/mL"
measurednumber = 1

[[record]]
compound = "C[C@H](C(=O)NC(Cn1cncn1)C(=O)c1ccccc1)c1cccc(C(=O)c2ccccc2)c1 (some centres undefined)"
assaytarget = "Cryptococcus neoformans"
unitinfo = "µg/mL"
measurednumber = 0.5

[[record]]
compound = "CC(C)OC(=O)[C@@H](Cn1cncn1)NC(=O)[C@@H](C)c1ccc(-c2ccccc2)c(F)c1"
assaytarget = "Cryptococcus neoformans"
unitinfo = "µg/mL"
measurednumber = 1

[[record]]
compound = "COC(=O)[C@@H](Cn1ccnc1)NC(=O)[C@@H](C)c1cccc(C(=O)c2ccccc2)c1"
assaytarget = "Cryptococcus neoformans"
unitinfo = "µg/mL"
measurednumber = 1


With those in mind, consider the next compound.
Given the entry C[C@H](C(=O)NC(Cn1cncn1)C(=O)c1ccccc1)c1ccc(-c2ccccc2)c(F)c1 (some centres undefined) , what MIC50 was observed with Cryptococcus neoformans?
0.5

====

Catalogue of Activity values
System: Candida albicans
Test: Induction of apoptosis in Candida albicans ATCC SC5314 assessed as normal cells incuabted for 24 hrs by V-FITC/PI staining based flow cytometry analysis (reference value: 96.78%)
Format: functional
Supply the numeric figure in %, leaving out any unit text.

Consider the worked cases shown below.
[[record]]
compound = "COC(=O)[C@@H](Cn1cncn1)NC(=O)[C@@H](C)c1cccc(C(=O)c2ccccc2)c1"
assaytarget = "Candida albicans"
measurednumber = 64.15

[[record]]
compound = "CC(C)NC(=O)[C@@H](Cn1ccnc1)NC(=O)[C@@H](C)c1cccc(C(=O)c2ccccc2)c1"
assaytarget = "Candida albicans"
measurednumber = 53.73

[[record]]
compound = "COc1ccc2cc([C@H](C)C(=O)NC(Cn3cncn3)C(=O)c3ccccc3)ccc2c1 (some centres undefined)"
assaytarget = "Candida albicans"
measurednumber = 50.92


With those in mind, consider the next compound.
Given the entry OC(Cn1cncn1)(Cn1cncn1)c1ccc(F)cc1F , what Activity was observed with Candida albicans?
68.17
